experimental-details: Tissue concentrations of vinorelbine and deacetylvinorelbine 4 h after i.v. vinorelbine in CES2-modified mice
Assay type: in vivo, mouse
test-parameters: male, mouse, small intestine tissue, intravenous, 10 mg/kg, male Ces2^–/– mice, i.v. vinorelbine 10 mg/kg, read-out: CSI (small intestine tissue concentration)
endpoint-label: concentration at 4 h (ng/g)
Provide the reading as a plain figure in ng/g.

# input Given the molecule CCC1=C[C@@H]2CN(C1)Cc1c([nH]c3ccccc13)[C@@](C(=O)OC)(c1cc3c(cc1OC)N(C)[C@H]1[C@@](O)(C(=O)OC)[C@H](OC(C)=O)[C@]4(CC)C=CCN5CC[C@]31[C@@H]54)C2 [Vinorelbine, reference compound] , write its reported concentration at 4 h.
# output 5920
